These data points were gathered from the supplement of paper PMC6555819.

Test system: RARg homodimer (NR concentration 270 nM)
assayDetails: PBM binding z-score (relative to random genomic background probes); higher = stronger binding; sequences stand for … in GC…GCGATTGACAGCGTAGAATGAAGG
recordedMetric: PBM binding z-score
I'd appreciate a reply containing only the number, no unit.

Note down PBM binding z-score recorded for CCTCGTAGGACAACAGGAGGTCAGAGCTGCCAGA
3

In one line, give reported PBM binding z-score of the entry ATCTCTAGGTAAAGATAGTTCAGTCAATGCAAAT .
0.808

// fetch PBM binding z-score given entry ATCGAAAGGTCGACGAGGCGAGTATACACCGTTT
3.74

# return recorded PBM binding z-score for input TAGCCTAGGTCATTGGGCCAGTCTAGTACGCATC
3.79

Item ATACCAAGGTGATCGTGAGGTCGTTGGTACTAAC : provide PBM binding z-score
0.722

Identify measured PBM binding z-score associated with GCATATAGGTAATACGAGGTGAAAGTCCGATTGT
0.419

Recall and state the measured PBM binding z-score for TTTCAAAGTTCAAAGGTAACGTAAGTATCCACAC .
5.88

Provide PBM binding z-score value for the following sequence: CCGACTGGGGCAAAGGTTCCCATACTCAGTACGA
0.494

Give reported PBM binding z-score value for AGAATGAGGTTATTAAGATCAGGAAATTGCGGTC
0.9

Indicate the recorded PBM binding z-score value for this sequence: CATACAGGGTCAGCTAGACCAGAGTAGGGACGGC
4.93

Provide PBM binding z-score value for the following sequence: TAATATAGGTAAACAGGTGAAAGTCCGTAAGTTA
0.756

Identify PBM binding z-score associated with the sequence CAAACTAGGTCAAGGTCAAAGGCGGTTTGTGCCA
6.63

# return recorded PBM binding z-score for entry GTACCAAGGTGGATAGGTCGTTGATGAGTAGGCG
0.275

Consider the sequence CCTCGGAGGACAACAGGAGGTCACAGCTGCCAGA and give its recorded PBM binding z-score.
3.89

For the sequence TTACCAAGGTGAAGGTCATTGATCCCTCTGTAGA , give its reported PBM binding z-score.
3.53

Please report PBM binding z-score for the following sequence: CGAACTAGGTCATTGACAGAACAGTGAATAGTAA
4.15

Quick one: give measured PBM binding z-score for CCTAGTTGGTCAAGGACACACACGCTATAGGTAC
1.81

Identify measured PBM binding z-score corresponding to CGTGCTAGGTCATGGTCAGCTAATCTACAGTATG
4.74

Provide PBM binding z-score value for the following sequence: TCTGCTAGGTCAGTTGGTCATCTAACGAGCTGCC
3.99

Write down PBM binding z-score measured for item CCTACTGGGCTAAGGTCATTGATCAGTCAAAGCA
3.51

Specify PBM binding z-score for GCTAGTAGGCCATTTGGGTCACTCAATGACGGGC and stop.
1.33

Tell us which PBM binding z-score value is on record for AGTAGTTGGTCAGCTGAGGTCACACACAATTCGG
4.62

Please supply the value of reported PBM binding z-score for the item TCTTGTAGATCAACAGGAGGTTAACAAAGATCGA
0.542

Give me measured PBM binding z-score, please, for this sequence: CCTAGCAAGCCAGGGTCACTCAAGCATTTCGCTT
2.62

Annotate the sequence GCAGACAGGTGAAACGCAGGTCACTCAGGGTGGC with its measured PBM binding z-score.
2.47

Input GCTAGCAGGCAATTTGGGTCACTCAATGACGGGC , output reported PBM binding z-score.
0.847
